From: patent US20110171261A1

# systemTested: CXCR4 (Homo sapiens, UniProt P61073)
# Construct: Expression of chemokine receptors CCR4 and CXCR4 by CCRF-CEM cells; endogenous in cells; host or cells: CCRF-CEM
# Sequence (P61073 whole entry): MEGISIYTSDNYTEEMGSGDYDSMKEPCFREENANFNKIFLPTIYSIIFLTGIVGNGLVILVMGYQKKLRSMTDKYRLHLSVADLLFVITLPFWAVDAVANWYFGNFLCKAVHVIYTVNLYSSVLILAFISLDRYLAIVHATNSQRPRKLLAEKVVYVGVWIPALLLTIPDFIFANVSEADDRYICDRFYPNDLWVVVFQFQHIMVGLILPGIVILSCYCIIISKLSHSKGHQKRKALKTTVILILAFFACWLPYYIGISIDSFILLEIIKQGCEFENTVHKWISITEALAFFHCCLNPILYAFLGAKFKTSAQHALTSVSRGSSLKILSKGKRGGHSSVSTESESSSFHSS
# assayInfo: CXCL12-mediated (CXCR4) chemotaxis of CCRF-CEM cells, specificity
# Format: cell-based
# reportedConditions: 3 nM CXCL12; 2 μM CCR4 antagonists (1000 times higher than IC50); n=2
quantityName: effect on CXCL12-mediated chemotaxis (CXCR4-mediated migration) of CCRF-CEM cells

# count of solved cases: 4
O=C(CSc1nc(-c2ccccc2)c(-c2ccccc2)o1)Nc1ccc(S(=O)(=O)Nc2nccs2)cc1 [(XI)] :: do not inhibit
CCc1ccc(C2C(C(=O)c3cc4ccccc4o3)=C(O)C(=O)N2c2nnc(SCc3ccccc3F)s2)cc1 (centres unmarked) [(VI)] :: do not inhibit
O=C(C1=C(O)C(=O)N(c2nnc(SCc3ccccc3)s2)C1c1cccs1)c1cc2ccccc2o1 (centres unmarked) [compound (VIII)] :: do not inhibit
O=C(C1=C(O)C(=O)N(c2nnc(SCc3ccccc3Cl)s2)C1c1ccc(Cl)c(Cl)c1)c1cc2ccccc2o1 (centres unmarked) [(III)] :: do not inhibit

Moving on to the next compound.
*Q* Please provide the recorded effect on CXCL12-mediated chemotaxis (CXCR4-mediated migration) of CCRF-CEM cells for O=C(C1=C(O)C(=O)N(c2nnc(SCc3ccc(Cl)cc3)s2)C1c1cccs1)c1cc2ccccc2o1 (centres unmarked) [(V)] , tested on CXCR4 (Homo sapiens, UniProt P61073).
*A* do not inhibit
